Assay: in vitro
Details: human, liver microsomes
hey, just use True if measured microsomal CLint is less than 20 µL/min/mg, otherwise False

MOLECULE | ASSIGNED LABEL
CSCCC(NC(=O)c1ccccc1)c1nc2ccccc2n1Cc1ccc(C#N)cc1 (stereo not given) | False
COc1ccc(CCN2CCC(Nc3nc4ccccc4n3Cc3ccc(F)cc3)CC2)cc1 [ASTEMIZOLE] | False
Cc1nc2ncnn2c(O)c1CCOC(=O)c1c(F)cccc1F | False
Cc1ccc2[nH]ccc2c1-c1nc(N2CCOCC2)cc(C2(S(C)(=O)=O)CC2)n1 | True
C[C@@H](C(N)=O)c1ccc(OS(=O)(=O)C(F)(F)F)cc1 | True
CCn1c(C)c(C(=O)O)c(-c2cccc(N3CCN(c4ccc(NS(=O)(=O)c5ccc(N[C@H](CCN6CCC(O)CC6)CSc6ccccc6)c(S(=O)(=O)C(F)(F)F)c5)cc4)CC3)c2)c1-c1ccc(Cl)cc1 | True
CCS(=O)(=O)c1ccc(-c2cc(Cl)ccc2OCC(=O)O)c(Cl)c1 | True
N#Cc1cn(Cc2ccco2)c(=O)[nH]c1=O | True
O=C(NC[C@@H](O)CN1CCC(Oc2ccc(Cl)c(Cl)c2)CC1)c1cnnc2ccccc12 | True

----------
Assay: in vitro
Conditions: human, hepatocytes

STRUCTURE SMILES | LT GT EQ | hepatocyte CLint [µL/min/1e6 cells]
CC(C)(N)C(=O)N[C@H](COCc1ccc(F)cc1F)C(=O)N1CCC2=NN(CC(F)(F)F)C(=O)[C@]2(Cc2ccccn2)C1 | = | 15.5
Clc1ccc(Cn2c(-c3nn[nH]n3)cc3ccccc32)cc1Cl | = | 12.9
COCCOc1cc(-c2cccc3c(=O)cc(N4CCOCC4)oc23)ccc1NC(=O)CN1CCOCC1 | = | 43.6
C[C@H]1CN(Cc2cc(Cl)ccc2OCC(=O)O)CCN1C(=O)Cc1ccc(F)cc1 | < | 3
CS(=O)(=O)N1CCc2c(-c3cnc(N)nc3)nc(N3CCOCC3)nc21 | < | 3
CCOc1ccc2ccc(=O)oc2c1 | = | 35.5
Cc1ccc2nc(C(=O)O)[nH]c2c1 | = | 9.77
C#Cc1cccc(Nc2ncnc3cc4c(cc23)OCCOCCOCCO4)c1 | = | 3.55
Cn1cc(C2=C(c3cn(C4CCN(Cc5ccccn5)CC4)c4ccccc34)C(=O)NC2=O)c2ccccc21 | = | 6

----------
Assay: physchem
Settings: octan-1-ol/water, pH 7.4, LogD7.4
Listing of recorded logD by entry.

COMPOUND | logD
CC(C)C[C@H](N[C@@H](c1ccc(-c2ccc(S(C)(=O)=O)cc2)cc1)C(F)(F)F)C(=O)NCC#N | 3.24
Clc1cccc2[nH]ncc12 | 2.5
COC(=O)c1ccc(C)c(NS(=O)(=O)c2ccc3c(c2)c(=O)sn3C)c1 | 2.6
CCCCC(CC)COC(=O)CC(C(=O)OCC(CC)CCCC)S(=O)(=O)O (configuration not stated) [DOCUSATE] | 2.93
O=C1C2=Nc3ccccc3CN2c2ccccc21 | 2.71
CC(=O)Nc1ccc2ccn(-c3cc(NCCCN4CCCC4)n4ncc(C#N)c4n3)c2c1 | 1.87
O=c1oc2c(O)cccc2cc1-c1ccc(O)cc1 | 2.8
O=C(Nc1ccc(F)cc1)c1ccc(Cl)[n+]([O-])c1 | 1.38
N#CC1=C2C(=NC1=O)c1cccc3c(N4CCSCC4)ccc2c13 | 3.22
CN[C@@H](C)C(=O)N[C@H](C(=O)N[C@H]1CCCN(CCc2ccc(OC)cc2)C1)C(C)(C)C | 1.45
NCCCCN(Cc1nc2ccccc2[nH]1)C1CCCc2cccnc21 (configuration not stated) | 0.83
CN(C)CCCC(NC(=O)C1(N)CCN(c2ncnc3[nH]ccc23)CC1)c1ccc(Cl)cc1 (configuration not stated) | 1.4
COc1ccc(Cl)c(C(=O)NCC23CC4CC(CC(C4)C2)C3)c1 | 4.39
CCCNC(=O)NS(=O)(=O)c1ccc(Cl)cc1 [CHLORPROPAMIDE] | -0.33
Cc1ccc(NC(=O)c2ccnc(N3CCOCC3)c2)cc1Nc1ccnc(OCC2CCCN(C)C2)n1 (configuration not stated) | 1.9
COc1ccccc1O[C@@H](c1ccccc1)[C@@H]1CNCCO1 | 0.9
CC(C)c1nc(CN(C)C(=O)N[C@H](C(=O)N[C@@H](Cc2ccccc2)C[C@H](O)[C@H](Cc2ccccc2)NC(=O)OCc2cncs2)C(C)C)cs1 | 4.3
COc1cc(OC)c(S(=O)(=O)N(c2ccccc2)C(C)C)cc1NC(C)=O | 1.6
Nc1c2c(nc3c(-c4ncccn4)cccc13)CN(C1CCC1)C2=O | 1.85
O=C(Cc1ccc(Oc2ccccc2)cc1)NO | 2.03
CN(C)c1ccnc2sc(C(N)=O)c(N)c12 | 1.7
COc1cccc2c(-c3c(C)n(CC(=O)O)c4ccc(C)cc34)ccnc12 | 0.49
CN1CCN(CCOc2n[nH]c3ncnc(Nc4ccc(OCc5ccccn5)c(Cl)c4)c23)CC1 | 2.45
Cc1ccnc(NS(=O)(=O)c2ccc(N)cc2)n1 | -0.51
CCCc1c(OCCCCSCC(=O)O)ccc(C(C)=O)c1O | 1.3
COc1ccc(-c2c(C)c3ccc(OC)cc3oc2=O)cc1 | 3.31
CC(C)C(NC(=O)Cn1c(-c2ccccc2)ccc(NS(=O)(=O)c2ccccc2)c1=O)C(=O)C(F)(F)F (configuration not stated) | 2.26
O=C1CCOc2nc(C#CC3CCCC3)ccc21 | 3
CCCSc1nc2ccc(NC(=O)CCNC(N)=O)cc2s1 | 2.9
O=C(Nc1ccc(N2CCOCC2)nc1)c1nnc(Nc2ccc(F)c(F)c2)o1 | 2.9
COc1cc2ncc(C(N)=O)c(Nc3cc(C)ccc3F)c2cc1OC | 3.16
NC(Cc1cc(I)c(Oc2ccc(O)c(I)c2)c(I)c1)C(=O)O (configuration not stated) | 0.97
N#Cc1ccc(Cl)cc1O[C@H](CCN)c1ccccc1 | 0.76
CCc1[nH]c2nc(Sc3cnc4ccc[n+]([O-])c4c3)nc(N3C[C@@H]4[C@@H](N)[C@@H]4C3)c2c1Cl | 2.3
O=C(CO)N1CCC[C@@H]1COc1cccc2ncnc(Nc3ccc(OCc4ccccn4)c(Cl)c3)c12 | 3.71
Oc1ccc(-c2csc(-c3ccc(O)cc3)n2)cc1 | 3.7
CN(C)c1cccc2c(S(N)(=O)=O)cccc12 | 1.95
Nc1cc2n[nH]c(=O)n2c2cc(-c3ccc[nH]3)ccc12 | 2.3
Cc1ccc(CO)cc1N(C)c1ccnc(Nc2cc(N3CCOCC3)cc(N3CCOCC3)c2)n1 | 2.94
CCCN1CCC(Oc2nccc(Nc3cc(NC(=O)c4cccc(N5CCOCC5)c4)ccc3C)n2)CC1 | 2.6
COc1cc(N2CCN(C(C)=O)CC2)ccc1Nc1ncc(Br)c(-c2cnc3ccccn23)n1 | 3.7
CCCSc1nc2ccc(NC(=O)CCC(=O)O)cc2s1 | 0.5
